Reference source: paper PMC10787407

Test: PK study of SM components in plasma of AIA rats by UPLC-MS/MS (MG vs MPS group)
Details: MG group: AIA rats, saline 21 days, then oral SM 39.2 g crude drug/kg; plasma; mean ± SEM
Decide using C max alone. Strictly below 3 ng/mL: Y. Equal to or above 3 ng/mL: N.

In: # check: C max < 3 ng/mL for COC[C@]12CN(C)C3[C@@H]4[C@H](OC)[C@H]1[C@@]3([C@@H](OC)C[C@H]2O)[C@@H]1C[C@@]2(O)[C@H](OC(=O)c3ccccc3)[C@@H]1[C@]4(O)[C@@H](O)[C@@H]2OC
Out: N

In: Does the reported C max of the following compound sit strictly below 3 ng/mL? CCN1C[C@]2(COC)[C@H](O)C[C@H](OC)[C@@]34[C@@H]5C[C@@]6(O)[C@H](OC(=O)c7ccccc7)[C@@H]5[C@@](O)([C@@H]([C@H](OC)[C@H]23)[C@@H]14)[C@@H](O)[C@@H]6OC
Out: Y

In: Decide: C max of COC[C@@]12CC[C@H](OC)[C@]34C([C@H]([C@H](OC)[C@H]13)[C@]1(O)[C@H]3[C@@H](OC(=O)c5ccccc5)[C@](O)(C[C@H]34)[C@@H](OC)[C@@H]1O)N(C)C2 strictly below 3 ng/mL?
Out: Y

In: Identify whether the compound CCN1C[C@]2(COC)CC[C@H](O)[C@]34C1[C@H]([C@H](OC)[C@H]23)[C@@]1(O)C[C@H](OC)[C@H]2C[C@@H]4[C@@H]1[C@H]2O records C max below 3 ng/mL.
Out: N

In: Does the reported C max of the following compound sit strictly below 3 ng/mL? COc1ccc(-c2coc3cc(O[C@@H]4O[C@H](CO)[C@@H](O)[C@H](O)[C@H]4O)ccc3c2=O)cc1O [Calycosin-7-glycoside]
Out: N
